# subjectOfTest: HLA-B*40:02
# experiment: IEDB peptide-MHC binding, purified MHC/competitive/radioactivity; bounds were set here for any values at or beyond the usual limits of such assays
# conditionParameters: source organism: Hepatitis B virus
Recorded IC50 by entry
Enter the number, and then the unit.

Here are 2 sequences together with their reported answers.
RETVLEYLV | 36 nM
AELLAACF | 93 nM

Input `VELLSFLPSDF` , output reported IC50.
480 nM

Input `AELLAACFA` , output reported IC50.
50 nM

* * *

# subjectOfTest: HLA-B*40:02
# experiment: IEDB peptide-MHC binding, purified MHC/competitive/radioactivity; filed as Kd, often an IC50 or EC50 that approximates it; bounds were set here for any values at or beyond the usual limits of such assays
# conditionParameters: source organism: Plasmodium falciparum
parameterMeasured: Kd

Input `NELNYDNAGI` , output reported Kd.
≥ 23.6 µM

Source of measurements: the Immune Epitope Database (IEDB)
